# EXPERIMENT: Percentage bioavailability vs time profile of anticancer drug from coated STN (FIG. 5)
# TEST CONDITIONS: in vivo; conventional oral form
MEASURED PROPERTY: bioavailability

[Q] Please report bioavailability for the following molecule: CC(=O)O[C@@]12CO[C@@H]1C[C@H](O)[C@@]1(C)C(=O)[C@H](O)C3=C(C)[C@@H](OC(=O)[C@H](O)[C@@H](NC(=O)OC(C)(C)C)c4ccccc4)C[C@@](O)([C@@H](OC(=O)c4ccccc4)[C@H]21)C3(C)C
[A] < 10%

----------
# EXPERIMENT: Percentage bioavailability vs time profile of Nutraceutical 1 from coated STN (FIG. 6)
# TEST CONDITIONS: in vivo, oral; from coated STN, at 6 hrs
MEASURED PROPERTY: bioavailability at 6 hrs

[Q] Consider the compound COC1=C(OC)C(=O)C(C/C=C(\C)CC/C=C(\C)CC/C=C(\C)CC/C=C(\C)CC/C=C(\C)CC/C=C(\C)CC/C=C(\C)CC/C=C(\C)CC/C=C(\C)CCC=C(C)C)=C(C)C1=O . State its measured bioavailability at 6 hrs.
[A] > 80%

----------
# EXPERIMENT: Percentage bioavailability vs time profile of Nutraceutical 1 from coated STN (FIG. 6)
# TEST CONDITIONS: in vivo; conventional formulations
MEASURED PROPERTY: bioavailability

[Q] Using known records, supply bioavailability for COC1=C(OC)C(=O)C(C/C=C(\C)CC/C=C(\C)CC/C=C(\C)CC/C=C(\C)CC/C=C(\C)CC/C=C(\C)CC/C=C(\C)CC/C=C(\C)CC/C=C(\C)CCC=C(C)C)=C(C)C1=O
[A] < 15%

----------
# EXPERIMENT: Percentage cumulative bioavailability vs time profile of two antibiotics from coated STN (FIG. 4)
# TEST CONDITIONS: in vivo; from coated STN, STN oral delivery, at 7 hr; read-out: Percentage cumulative bioavailability
MEASURED PROPERTY: bioavailability at 7 hr

[Q] Look up bioavailability at 7 hr of CC1(C)[C@H](C(=O)O)N2C(=O)C[C@H]2S1(=O)=O [sulbactam] and report it.
[A] > 100%

----------
# EXPERIMENT: Percentage cumulative bioavailability vs time profile of two antibiotics from coated STN (FIG. 4)
# TEST CONDITIONS: in vivo, po
MEASURED PROPERTY: bioavailability at 7 hr

[Q] Check the records and state bioavailability at 7 hr for CO/N=C(\C(=O)N[C@@H]1C(=O)N2C(C(=O)O)=C(CSc3nc(=O)c(=O)[nH]n3C)CS[C@H]12)c1csc(N)n1
[A] > 100%

----------
# EXPERIMENT: Percentage bioavailability vs time profile of anticancer drug from coated STN (FIG. 5)
# TEST CONDITIONS: in vivo, oral; from coated STN, after 9 hr (printed as release)
# Text: FIG. 5: Percentage Bioavailability vs time profile of anticancer drug (docetaxel) from coated STN indicating >90% release after 9 hr against conventional oral form with <10% bioavailability
MEASURED PROPERTY: bioavailability at 9 hr

[Q] Hello, please tell me recorded bioavailability at 9 hr for this one: CC(=O)O[C@@]12CO[C@@H]1C[C@H](O)[C@@]1(C)C(=O)[C@H](O)C3=C(C)[C@@H](OC(=O)[C@H](O)[C@@H](NC(=O)OC(C)(C)C)c4ccccc4)C[C@@](O)([C@@H](OC(=O)c4ccccc4)[C@H]21)C3(C)C
[A] > 90%
